# measured-target: µ-opioid receptor (Homo sapiens)
# Sequence (P35372 whole entry): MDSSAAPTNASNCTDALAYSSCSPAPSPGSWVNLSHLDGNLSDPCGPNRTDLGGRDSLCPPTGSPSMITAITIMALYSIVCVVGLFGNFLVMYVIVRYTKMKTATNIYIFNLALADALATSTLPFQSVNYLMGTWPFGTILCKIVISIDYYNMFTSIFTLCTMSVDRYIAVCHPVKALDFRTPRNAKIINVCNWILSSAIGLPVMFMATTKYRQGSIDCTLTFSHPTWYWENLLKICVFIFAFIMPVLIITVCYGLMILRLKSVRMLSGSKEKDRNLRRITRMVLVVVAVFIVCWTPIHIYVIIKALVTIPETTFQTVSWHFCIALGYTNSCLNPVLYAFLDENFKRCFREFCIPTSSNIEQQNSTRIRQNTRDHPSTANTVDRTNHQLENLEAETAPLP
pKi: −log10 of the molar value.
metric: pKi

Qu. Answer with the recorded pKi of CC[C@@H]1CN2CC[C@]3(C(=O)Nc4cccc(O)c43)[C@H]2C[C@@H]1/C(=C\OC)C(=O)OC only.
Ans. < 5.00

----------
# measured-target: human δ-opioid receptor (Homo sapiens, UniProt P41143)
# Construct: expressed in transfected cells
# Sequence (P41143 whole entry): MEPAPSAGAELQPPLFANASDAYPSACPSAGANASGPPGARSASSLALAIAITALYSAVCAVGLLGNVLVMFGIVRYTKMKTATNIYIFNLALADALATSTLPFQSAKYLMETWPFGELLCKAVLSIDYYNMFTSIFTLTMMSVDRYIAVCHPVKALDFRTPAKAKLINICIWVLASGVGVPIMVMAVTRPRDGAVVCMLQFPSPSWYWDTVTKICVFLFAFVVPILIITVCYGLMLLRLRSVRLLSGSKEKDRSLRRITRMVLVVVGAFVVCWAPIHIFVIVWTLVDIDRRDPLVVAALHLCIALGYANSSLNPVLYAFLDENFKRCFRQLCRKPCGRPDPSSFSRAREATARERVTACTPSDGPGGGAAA
# assay-comment: Competitive radioligand binding, δ-opioid receptor
# conditions-used: competitive binding against 3H-deltorphin; HEK293 cell membranes; minimum of three replicates; read-out: Receptor binding affinity (Ki ± SEM, nM) δ-opioid
Below, each entry is listed with its recorded Ki.

CC[C@@H]1CN2CC[C@]3(C(=O)Nc4cccc(O)c43)[C@H]2C[C@@H]1/C(=C\OC)C(=O)OC [Speciofoline, speciofoline] : > 10000 nM

Okay, next one:
Qu. Answer with the recorded Ki of CC[C@@H]1CN2CCc3c([nH]c4cccc(OC)c34)[C@@H]2C[C@@H]1/C(=C\OC)C(=O)OC [Mitragynine, mitragynine] only.
Ans. > 10000 nM
